biological target: human PPARα (Homo sapiens, UniProt Q07869); assay: PPARα reporter cell line assay (stably transfected HEK cells, GR-GAL4-PPARα fusion protein, firefly luciferase reporter); details: agonist activity in HEK PPARα reporter cell line; 24 h incubation; luciferase luminescence
Sequence (Q07869 167-468): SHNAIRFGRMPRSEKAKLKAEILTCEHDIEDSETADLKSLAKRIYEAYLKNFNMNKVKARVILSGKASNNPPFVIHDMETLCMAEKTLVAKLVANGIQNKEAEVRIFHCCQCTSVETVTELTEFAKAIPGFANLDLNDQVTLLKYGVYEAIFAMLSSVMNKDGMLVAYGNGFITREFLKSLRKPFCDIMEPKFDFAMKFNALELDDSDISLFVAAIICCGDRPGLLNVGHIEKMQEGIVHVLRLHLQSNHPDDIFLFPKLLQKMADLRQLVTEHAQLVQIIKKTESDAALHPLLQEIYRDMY
EXPERIMENTAL_READOUT: EC50 (nM)
Report as a plain number; the unit nM is understood.

{"COMPOUND": "COc1ccc(-c2nc(CO[C@H]3CCC[C@@H](OCc4cccc(C)c4C(=O)O)C3)co2)cc1 (relative stereo) [IV]", "RESULT_VALUE": 0.3}

Could you now look at the following compound, please?
Which EC50 value belongs to Cc1cccc(CO[C@@H]2CCC[C@H](OCc3nc(-c4cccc(C(F)(F)F)c4)oc3C)C2)c1C(=O)O [Example L] ?
0.19

These entries and their values trace back to patent US7399777B2.
